- TEST PROTOCOL: Metabolic stability in pooled human liver microsomes
- Format: in vitro ADME
- TEST SETTINGS: human liver microsomes 0.5 mg/mL, 1 uM, NADPH, 37° C.
Overview of reported Metabolic Stability human (30 minutes), percent of pro-drug metabolized to riluzole across a group of compounds:
State just the number; it will be interpreted in %.

Before answering, review these 9 worked examples.
{"COMPOUND": "C[C@@H](N)C(=O)Nc1nc2ccc(OC(F)(F)F)cc2s1 [Cpd 2]", "NUMERIC RESULT": 4}
{"COMPOUND": "N[C@@H](COCc1ccccc1)C(=O)Nc1nc2ccc(OC(F)(F)F)cc2s1 [Cpd 10]", "NUMERIC RESULT": 15}
{"COMPOUND": "N[C@@H](Cc1ccccc1)C(=O)Nc1nc2ccc(OC(F)(F)F)cc2s1 [Cpd 9]", "NUMERIC RESULT": 0}
{"COMPOUND": "CCCCOC(=O)Nc1nc2ccc(OC(F)(F)F)cc2s1 [Cpd 15]", "NUMERIC RESULT": 13}
{"COMPOUND": "CC(C)(C)OC(=O)CCC(=O)Nc1nc2ccc(OC(F)(F)F)cc2s1 [Cpd 22]", "NUMERIC RESULT": 21}
{"COMPOUND": "C[C@H](N)C(=O)Nc1nc2ccc(OC(F)(F)F)cc2s1 [Cpd 7]", "NUMERIC RESULT": 0}
{"COMPOUND": "N[C@H](Cc1ccccc1)C(=O)Nc1nc2ccc(OC(F)(F)F)cc2s1 [Cpd 4]", "NUMERIC RESULT": 18}
{"COMPOUND": "CN(C)CCCOC(=O)Nc1nc2ccc(OC(F)(F)F)cc2s1 [Cpd 19]", "NUMERIC RESULT": 0}
{"COMPOUND": "O=C(Cc1ccccc1[N+](=O)[O-])Nc1nc2ccc(OC(F)(F)F)cc2s1 [Cpd 27]", "NUMERIC RESULT": 22}

Continue with the compound presented below.
Ask: Dear colleague, please send me the reported Metabolic Stability human (30 minutes), percent of pro-drug metabolized to riluzole for CC(C)[C@H](N)C(=O)Nc1nc2ccc(OC(F)(F)F)cc2s1 [Cpd 11] when you can.
Reply: 6
